# PROCEDURE_DETAILS: Plasma stability assay, monkey plasma
# Assay type: in vitro ADME, cynomolgus monkey
# COND: 37° C., 2 μM, 120 min (as headed)
Field: label. Allowed values: 1 (% remaining at time point in minutes, 120 min < 90%) or -1 (% remaining at time point in minutes, 120 min >= 90%).

See these solved cases before continuing.
| MOLECULE | LABEL_VALUE |
| --- | --- |
| CCCCCCCCCCCC(=O)OCN1C(=O)CCc2ccc(OCCCCN3CCN(c4cccc(Cl)c4Cl)CC3)cc21 [Aripiprazole lauroxil, reference compound] | -1 |
| C=C1CC[C@@]2(O)C3Cc4ccc(OC(=O)OCCCCCCCCCCCC)c5c4[C@@]2(CCN3CC2CC2)[C@H]1O5 | 1 |
| C=C1CC[C@@]2(O)C3Cc4ccc(OCOC(=O)OCCCCCCCCCCCC)c5c4[C@@]2(CCN3CC2CC2)[C@H]1O5 | -1 |

Next:
Request: Does the reported % remaining at time point in minutes, 120 min of `C=C1CC[C@@]2(O)C3Cc4ccc(OC(=O)CCCCCCC/C=C/CCCCCCCC)c5c4[C@@]2(CCN3CC2CC2)[C@H]1O5` stay below 90%?
Result: 1
